Target: human TACE (Homo sapiens (Human))
Sequence (P78536 whole entry, looked up, change not shown): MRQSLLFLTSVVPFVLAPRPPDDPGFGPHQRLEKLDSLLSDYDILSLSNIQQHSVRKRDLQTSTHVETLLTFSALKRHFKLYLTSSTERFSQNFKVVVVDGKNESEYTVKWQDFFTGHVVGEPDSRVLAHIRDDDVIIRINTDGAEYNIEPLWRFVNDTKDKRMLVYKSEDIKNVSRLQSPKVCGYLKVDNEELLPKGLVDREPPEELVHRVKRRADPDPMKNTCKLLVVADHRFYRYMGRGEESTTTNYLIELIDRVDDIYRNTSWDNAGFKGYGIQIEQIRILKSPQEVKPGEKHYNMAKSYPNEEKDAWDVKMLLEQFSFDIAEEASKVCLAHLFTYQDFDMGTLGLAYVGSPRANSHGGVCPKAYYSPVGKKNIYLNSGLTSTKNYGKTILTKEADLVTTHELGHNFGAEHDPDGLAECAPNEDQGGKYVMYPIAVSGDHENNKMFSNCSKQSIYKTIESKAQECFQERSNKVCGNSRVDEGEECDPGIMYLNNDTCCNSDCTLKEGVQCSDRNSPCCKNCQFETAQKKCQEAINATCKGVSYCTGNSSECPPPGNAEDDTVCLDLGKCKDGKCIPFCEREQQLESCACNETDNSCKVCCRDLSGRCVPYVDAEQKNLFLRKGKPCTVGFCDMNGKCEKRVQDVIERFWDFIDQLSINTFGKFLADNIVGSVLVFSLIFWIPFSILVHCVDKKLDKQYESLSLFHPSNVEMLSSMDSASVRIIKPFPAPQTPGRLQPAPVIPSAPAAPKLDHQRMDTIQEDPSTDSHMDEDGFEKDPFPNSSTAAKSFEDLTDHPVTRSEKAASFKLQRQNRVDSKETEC
Conditions: read-out: TACE potency IC50
readout-name: IC50

{"columns": ["compound", "value"],
 "data": [
  ["COc1ccc(C2(CCC(=O)N3CCN(c4cccc(Cl)c4)CC3)NC(=O)NC2=O)cc1 (stereo not shown)", "2.66 µM"],
  ["COCC1(CC(C)C(=O)N2CCN(c3cccc(Cl)c3C)[C@@H](C)C2)NC(=O)NC1=O (stereo partly shown)", "> 4 µM"],
  ["CCC1(C[C@H](C)C(=O)N2CCN(c3cncc(Cl)c3)[C@@H](C)C2)NC(=O)NC1=O (stereo partly shown)", "> 12 µM"],
  ["Cc1ccc(C2(CCC(=O)N3CCN(c4cc(F)cc(F)c4)[C@@H](C)C3)NC(=O)NC2=O)cn1 (stereo partly shown)", "> 4 µM"],
  ["CC(CC1(C)NC(=O)NC1=O)C(=O)N1CCN(c2ccc(F)c(Cl)c2)[C@@H](C)C1 (stereo partly shown) [compound 405]", "> 4 µM"],
  ["CC1(CCC(=O)N2CCN(c3cc(F)cc(F)c3)CC2)NC(=O)NC1=O (stereo not shown)", "> 20 µM"],
  ["COCC1(CC(C)C(=O)N2CCN(c3cc(Cl)cc(Cl)c3)CC2)NC(=O)NC1=O (stereo not shown) [compound 427]", "0.337 µM"],
  ["CN(C)c1cccc(N2CCN(C(=O)CCC3(C4CC4)NC(=O)NC3=O)CC2)c1 (stereo not shown)", "> 4 µM"],
  ["COc1ccc(Cl)cc1C1(CCC(=O)N2CCN(c3cc(Cl)ccc3C)CC2)NC(=O)NC1=O (stereo not shown)", "0.195 µM"],
  ["COc1ccc(C2(CCC(=O)N3CCN(c4cc(Cl)ccc4C)CC3)NC(=O)NC2=O)cc1 (stereo not shown)", "0.277 µM"],
  ["CC(CC1(C)NC(=O)NC1=O)C(=O)N1CCN(c2ccc(F)cc2)[C@@H](C)C1 (stereo partly shown)", "> 9.33 µM"],
  ["C[C@H]1CN(C(=O)CCC2(c3cnccn3)NC(=O)NC2=O)CCN1c1ccc(F)c(Cl)c1 (stereo partly shown)", "> 4 µM"],
  ["O=C1NC(=O)C(CCC(=O)N2CCN(c3ccccc3)CC2)(C2CC2)N1 (stereo not shown)", "> 20 µM"],
  ["C[C@H]1CN(C(=O)CCC2(c3cccnc3)NC(=O)NC2=O)CCN1c1ccc(Cl)c(F)c1 (stereo partly shown)", "> 4 µM"],
  ["COCC1(CC(C)C(=O)N2CCN(c3cc(F)c(Cl)c(F)c3)CC2)NC(=O)NC1=O (stereo not shown) [compound 279]", "2.99 µM"],
  ["C[C@H]1CN(C(=O)CCC2(C3CC3)NC(=O)NC2=O)CCN1c1ccc(F)c(Cl)c1 (stereo partly shown)", "> 20 µM"]
]}

* * *

Molecular target: human TACE (Homo sapiens (Human))
Settings: read-out: TACE potency IC50
pIC50: −log10 of the molar value.
readout-name: pIC50

{"columns": ["compound", "value"],
 "data": [
  ["COC(CC1(C)NC(=O)NC1=O)C(=O)N1CCN(c2cc(Cl)cc(Cl)c2)CC1 (centres unmarked) [compound 439]", 6.10],
  ["CC(CC1(COCc2ccccc2)NC(=O)NC1=O)C(=O)N1CCN(c2cc(Cl)cc(Cl)c2)CC1 (centres unmarked) [compound 415]", 6.40],
  ["C[C@H]1CN(C(=O)CCC2(c3cocn3)NC(=O)NC2=O)CCN1c1cc(F)cc(F)c1 (some centres unmarked) [compound 362]", "< 4.70"],
  ["CC(CC1(C)NC(=O)NC1=O)C(=O)N1CCN(c2cccnc2)[C@@H](C)C1 (some centres unmarked) [compound 275]", "< 4.70"],
  ["CC(CC1(C2CC2)NC(=O)NC1=O)C(=O)N1CCN(c2cc(Cl)cc(Cl)c2)CC1 (centres unmarked) [compound 172]", 6.51],
  ["C[C@H]1CN(C(=O)CCC2(C3CC3)NC(=O)NC2=O)CCN1c1ccc2cnn(C)c2c1 (some centres unmarked) [compound 341]", 6.05],
  ["C[C@H]1CN(C(=O)CCC2(C3CC3)NC(=O)NC2=O)CCN1c1cccc(-c2cnccn2)c1 (some centres unmarked) [Cpd 372]", "< 4.70"],
  ["CC1(CCC(=O)N2CCN(c3ccc(F)cc3)CC2)NC(=O)NC1=O (centres unmarked) [compound 66]", "< 4.70"],
  ["CC(CC1(C2CC2)NC(=O)NC1=O)C(=O)N1CCN(c2ccc(F)c(Cl)c2)[C@@H](C)C1 (some centres unmarked) [compound 411]", "< 5.40"],
  ["Cc1cccc(N2CCN(C(=O)CCC3(C4CC4)NC(=O)NC3=O)CC2)c1C (centres unmarked) [compound 57]", "< 4.92"],
  ["Cc1ccc(F)cc1N1CCN(C(=O)CCC2(c3ccccn3)NC(=O)NC2=O)CC1 (centres unmarked) [compound 104]", 6.34],
  ["Cc1ccc(C2(CCC(=O)N3CCN(c4cccc(F)c4)[C@@H](C)C3)NC(=O)NC2=O)cn1 (some centres unmarked) [compound 385]", "< 5.40"],
  ["C[C@H]1CN(C(=O)CCC2(C3CC3)NC(=O)NC2=O)CCN1c1cc(Cl)ccn1 (some centres unmarked) [compound 325]", "< 4.70"],
  ["N#Cc1ccc(C2(CCC(=O)N3CCN(c4cccc(Cl)c4)CC3)NC(=O)NC2=O)cc1 (centres unmarked) [compound 125]", 5.74],
  ["O=C1NC(=O)C(CCC(=O)N2CCN(c3cccc(F)c3)CC2)(C2CC2)N1 (centres unmarked) [compound 115]", "< 4.70"],
  ["COCCN(C)CC1(CCC(=O)N2CCN(c3cccc(Cl)c3)CC2)NC(=O)NC1=O (centres unmarked) [compound 154]", "< 4.70"],
  ["C[C@H]1CN(C(=O)CCC2(c3cnccn3)NC(=O)NC2=O)CCN1c1cc(Cl)cc(Cl)c1 (some centres unmarked) [compound 461]", 5.60],
  ["Cc1ccccc1N1CCN(C(=O)CCC2(c3ccccc3)NC(=O)NC2=O)CC1 (centres unmarked) [compound 7]", "< 5.53"],
  ["COCC1(CC(C)C(=O)N2CCN(c3ccc(Cl)c(C(F)(F)F)c3)[C@@H](C)C2)NC(=O)NC1=O (some centres unmarked) [compound 478]", "< 5.40"],
  ["Cc1cncc(N2CCN(C(=O)CCC3(C4CC4)NC(=O)NC3=O)C[C@@H]2C)c1 (some centres unmarked) [compound 303]", "< 4.70"],
  ["C[C@H]1CN(C(=O)CCC2(C3CC3)NC(=O)NC2=O)CCN1c1ccc2c(cnn2C)c1 (some centres unmarked) [compound 297]", "< 4.70"],
  ["Cc1ccccc1N1CCN(C(=O)CCC2(C3CC3)NC(=O)NC2=O)CC1 (centres unmarked) [compound 35]", "< 5.40"],
  ["CC(CC1(C)NC(=O)NC1=O)C(=O)N1CCN(c2cc(Cl)cc(Cl)c2)CC1 (centres unmarked) [compound 410]", 6.77],
  ["C[C@H]1CN(C(=O)CC[C@@]2(C)NC(=O)NC2=O)CCN1c1ccc(Cl)c(Cl)c1 [compound 414]", "< 5.40"],
  ["O=C1NC(=O)C(CCC(=O)N2CCN(c3ccc4scnc4c3)CC2)(c2ccccc2)N1 (centres unmarked) [compound 26]", "< 5.00"],
  ["Cc1ccc(C)c(N2CCN(C(=O)CCC3(c4ccccn4)NC(=O)NC3=O)CC2)c1 (centres unmarked) [compound 87]", 6.92],
  ["CC(CC1(c2ccccn2)NC(=O)NC1=O)C(=O)N1CCN(c2cc(Cl)cc(Cl)c2)[C@@H](C)C1 (some centres unmarked) [compound 442]", 6.10],
  ["Cc1ccccc1N1CCN(C(=O)CCC2(C(C)C)NC(=O)NC2=O)CC1 (centres unmarked) [compound 32]", "< 5.40"],
  ["Cc1ccc(F)cc1N1CCN(C(=O)C(C)CC2(C3CC3)NC(=O)NC2=O)CC1 (centres unmarked) [compound 174]", 6.49],
  ["Cc1noc(C)c1-c1cccc(N2CCN(C(=O)CCC3(C4CC4)NC(=O)NC3=O)C[C@@H]2C)c1 (some centres unmarked) [compound 369]", "< 4.70"],
  ["CSCCC1(CC(C)C(=O)N2CCN(c3cc(Cl)cc(Cl)c3)CC2)NC(=O)NC1=O (centres unmarked) [compound 197]", 6.87],
  ["C[C@H]1CN(C(=O)CCC2(c3cncnc3)NC(=O)NC2=O)CCN1c1cc(F)cc(F)c1 (some centres unmarked) [compound 332]", "< 4.70"]
]}

These measurements were taken from patent US9926281B2.
